# assay: Functional Dkk1-LRP5-TCF-Luciferase Assay in U2OS Cells (table columns: A=MAX FOLD Induction/DMSO CONTROL; B=fold induction @ 2.0 uM; C=fold induction @ 20.0 uM)
# Type: cell-based, Human
# settings: Homo sapiens, U2OS; 2.0 uM compound
endpoint: fold induction at 2 µM
Answer with a bare number; do not write a unit.

Look over these answered cases.
Lookup result for c1ccc2cc(-c3cnc4c(c3)nc(-c3ccc5occc5c3)n4C3CCNCC3)ccc2c1 ; measured fold induction at 2 µM: 0.98

Looking up FC(F)(F)c1ccc(C(F)(F)F)c(-c2nc3c(-c4ccc5ccccc5c4)ccnc3n2C2CCNCC2)c1 , I found its fold induction at 2 µM recorded as 1.45

Query CN(C)S(=O)(=O)N1CCC(n2cnc3c(-c4ccc5ccccc5c4)ccnc32)CC1 yields fold induction at 2 µM of 1.19

Record CCn1cnc(-c2nc3c(-c4ccc5ccccc5c4)ccnc3n2C2CCNCC2)c1C . Reported fold induction at 2 µM: 1.88

# fold induction at 2 µM (compound: COc1ccc2ccccc2c1-c1nc2c(-c3ccc4ccccc4c3)ccnc2n1C1CCNCC1 ) is 1.17

Lookup result for c1ccc2cc(-c3ccnc4c3ncn4[C@H]3CCCNC3)ccc2c1 ; measured fold induction at 2 µM: 1.02

New cases:
Field fold induction at 2 µM (entry Cn1c(=O)n(C2CCN(C(=O)N3CCOCC3)CC2)c2nccc(-c3ccc4ccccc4c3)c21 ) reads 1.29

Entry under test: c1ccc2cc(-c3ccnc4c3nc(-c3ccncc3)n4C3CCNCC3)ccc2c1 . Its fold induction at 2 µM was 1.89

According to the records, this compound CCc1nc2c(-c3ccc4ccccc4c3)ccnc2n1C1CCNCC1 displays fold induction at 2 µM of 1.39

Note to self: fold induction at 2 µM recorded for Clc1ccc(-c2nc3c(-c4ccc5ccccc5c4)ccnc3n2C2CCNCC2)c(Cl)c1 was 1.1

In plain terms, CC(C)Cc1nc2cc(-c3ccc4ccccc4c3)cnc2n1C1CCNCC1 has a documented fold induction at 2 µM of 1.13

Lookup result for c1ccc2cc(-c3ccnc4c3nc(-c3ccc5c(c3)OCCO5)n4C3CCNCC3)ccc2c1 ; measured fold induction at 2 µM: 1.18

In plain terms, CC(C)NC(=O)N1CCC(n2cnc3c(-c4ccc5ccccc5c4)ccnc32)CC1 has a documented fold induction at 2 µM of 1.2
